Source listed as paper PMC7815202.

Molecular target: bovine spleen ADA (Bos taurus, UniProt P56658)
Sequence (P56658 whole entry): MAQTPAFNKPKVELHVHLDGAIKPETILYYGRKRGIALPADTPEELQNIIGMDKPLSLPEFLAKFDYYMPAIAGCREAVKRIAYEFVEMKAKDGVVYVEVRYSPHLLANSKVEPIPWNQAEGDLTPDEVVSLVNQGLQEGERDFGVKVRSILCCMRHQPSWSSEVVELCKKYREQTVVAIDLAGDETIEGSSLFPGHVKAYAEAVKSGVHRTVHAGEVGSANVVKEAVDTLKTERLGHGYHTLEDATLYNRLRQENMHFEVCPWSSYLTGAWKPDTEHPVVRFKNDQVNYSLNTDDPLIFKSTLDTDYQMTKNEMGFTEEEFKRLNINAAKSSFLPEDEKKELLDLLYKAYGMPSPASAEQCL
Test: Cuvette fluorescence assay of ADA
Type: biochemical
measured attribute: Ki
Please append the unit to your numeric answer.

Query: Return Ki for the following compound: `C[C@@H]1CN=C(c2ccccc2O)O1`
Result: 156 µM

Query: Return Ki for the following compound: `C[C@H]1CN=C(c2ccccc2O)O1`
Result: 161 µM

----------
Target: bovine spleen ADA (Bos taurus, UniProt P56658)
Test: Cuvette fluorescence assay of ADA
Type: biochemical
measured attribute: pIC50
Field pIC50 (float): negative decimal logarithm of the concentration in molar.

Query: Return pIC50 for the following molecule: `C[C@@H]1CN=C(c2ccccc2O)O1`
Result: 3.73

Query: Return pIC50 for the following molecule: `C[C@H]1CN=C(c2ccccc2O)O1`
Result: 3.71
